Entry source: patent US7465755B2

- Tested Target: h-EP2 (Homo sapiens, UniProt P43116)
- Sequence (P43116 whole entry): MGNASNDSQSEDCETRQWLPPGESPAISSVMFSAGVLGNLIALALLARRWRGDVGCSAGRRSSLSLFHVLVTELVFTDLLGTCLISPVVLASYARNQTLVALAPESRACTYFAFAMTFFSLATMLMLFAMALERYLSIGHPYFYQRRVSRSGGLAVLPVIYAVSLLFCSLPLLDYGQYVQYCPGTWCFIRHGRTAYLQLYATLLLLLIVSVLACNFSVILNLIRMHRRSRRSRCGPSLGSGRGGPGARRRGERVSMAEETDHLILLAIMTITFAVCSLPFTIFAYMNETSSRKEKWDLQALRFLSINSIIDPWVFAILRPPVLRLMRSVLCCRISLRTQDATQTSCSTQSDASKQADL
pKi: −log10 of the molar value.

>  <Compound>
CCCCCC(O)CCNN(CCc1ccc(C(=O)O)cc1)C(C)=O (stereo not shown)

>  <pKi>
4.48

$$$$
